Data origin, for the record: patent US20230312742A1

Collected Kd values appear next to each entry.
System Under Test: human CD38 antigen (recombinant human CD38 protein) (human, UniProt P28907 43-300, limits assumed)
Protocol Text: SPR, IgG captured on anti-human Fc, human CD38 in solution;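 further: humanized IgG captured on an amine-coupled anti-human Fc HC30M chip, with human CD38 injected as a dilution series from 1000 nM downward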
Readout: Kd

[
  {
    "Binder": "L3H6 (antibody, V domains shown, Humanized AT13/5 IgG, VL3 + VH6) VH: QVQLQESGPGLVKPSETLSLTCTVSGFSLTSYGVHWIRQPPGKGLEWLGVMWRGGSTNYNPSLKSRVTISKDTSKNQFSLKLSSVTAADTAVYYCAKSMITTGFVMDSWGQGTLVTVSS VL: DIQMTQSPSSLSASVGDRVTITCRASEDIYNRLTWYQQKPGKAPKLLLSGATSLETGVPSRFSGSGSGTDYTLTISSLQPEDFATYYCQQYWSNPYTFGGGTKVEIK",
    "Result": "1300 nM"
  },
  {
    "Binder": "L1H7 (antibody, V domains shown, Humanized AT13/5 IgG, VL1 + VH7) VH: QVQLKQSGPGLVKPSETLSLTCTVSGFSLTSYGVHWIRQPPGKGLEWIGVMWRGGSTNYNPSLKSRLTISVDTSKNQFSLKLSSVTAADTAVYYCAKSMITTGFVMDSWGQGTLVTVSS VL: DIQMTQSPSSLSASVGDRVTITCRASEDIYNRLTWYQQKPGKAPKLLLSGATSLETGVPSRFSGSGSGKDYTLTISSLQPEDFATYYCQQYWSNPYTFGGGTKVEIK",
    "Result": "8500 nM"
  },
  {
    "Binder": "L4H6 (antibody, V domains shown, Humanized AT13/5 IgG, VL4 + VH6) VH: QVQLQESGPGLVKPSETLSLTCTVSGFSLTSYGVHWIRQPPGKGLEWLGVMWRGGSTNYNPSLKSRVTISKDTSKNQFSLKLSSVTAADTAVYYCAKSMITTGFVMDSWGQGTLVTVSS VL: DIQMTQSPSSLSASVGDRVTITCRASEDIYNRLTWYQQKPGKAPKLLLYGATSLETGVPSRFSGSGSGKDYTLTISSLQPEDFATYYCQQYWSNPYTFGGGTKVEIK",
    "Result": "580 nM"
  },
  {
    "Binder": "L2H1 (antibody, V domains shown, Humanized AT13/5 IgG, VL2 + VH1) VH: QVQLQESGPGLVKPSETLSLTCTVSGFSLTSYGVHWIRQPPGKGLEWIGVMWRGGSTDYNPSLKSRVTISKDNSKRQFSLKLSSVTAADTAVYYCAKSMITTGFVMDSWGQGTLVTVSS VL: DIQMTQSPSSLSASVGDRVTITCRASEDIYNRLAWYQQKPGKAPKLLLSGATSLETGVPSRFSGSGSGTDYTLTISSLQPEDFATYYCQQYWSNPYTFGGGTKVEIK",
    "Result": "950 nM"
  },
  {
    "Binder": "L3H2 (antibody, V domains shown, Humanized AT13/5 IgG, VL3 + VH2) VH: QVQLQESGPGLVKPSETLSLTCTVSGFSLTSYGVHWVRQPPGKGLEWIGVMWRGGSTDYNPSLKSRVTISKDNSKRQFSLKMSSVTAADTAVYYCAKSMITTGFVMDSWGQGTLVTVSS VL: DIQMTQSPSSLSASVGDRVTITCRASEDIYNRLTWYQQKPGKAPKLLLSGATSLETGVPSRFSGSGSGTDYTLTISSLQPEDFATYYCQQYWSNPYTFGGGTKVEIK",
    "Result": "460 nM"
  },
  {
    "Binder": "L3H4 (antibody, V domains shown, Humanized AT13/5 IgG, VL3 + VH4) VH: QVQLQESGPGLVKPSETLSLTCTVSGFSLTSYGVHWIRQPPGKGLEWIGVMWRGGSTDYNPSLKSRVTISVDTSKRQVSLKLSSVTAADTAVYYCAKSMITTGFVMDSWGQGTLVTVSS VL: DIQMTQSPSSLSASVGDRVTITCRASEDIYNRLTWYQQKPGKAPKLLLSGATSLETGVPSRFSGSGSGTDYTLTISSLQPEDFATYYCQQYWSNPYTFGGGTKVEIK",
    "Result": "1200 nM"
  },
  {
    "Binder": "L4H3 (antibody, V domains shown, Humanized AT13/5 IgG, VL4 + VH3) VH: QVQLQESGPGLVKPSETLSITCTVSGFSLTSYGVHWIRQPPGKGLEWIGVMWRGGSTDYNPSLKSRVTISKDTSKNQFSLKLSSLTAADTAVYYCAKSMITTGFVMDSWGQGTLVTVSS VL: DIQMTQSPSSLSASVGDRVTITCRASEDIYNRLTWYQQKPGKAPKLLLYGATSLETGVPSRFSGSGSGKDYTLTISSLQPEDFATYYCQQYWSNPYTFGGGTKVEIK",
    "Result": "200 nM"
  },
  {
    "Binder": "L1H4 (antibody, V domains shown, Humanized AT13/5 IgG, VL1 + VH4) VH: QVQLQESGPGLVKPSETLSLTCTVSGFSLTSYGVHWIRQPPGKGLEWIGVMWRGGSTDYNPSLKSRVTISVDTSKRQVSLKLSSVTAADTAVYYCAKSMITTGFVMDSWGQGTLVTVSS VL: DIQMTQSPSSLSASVGDRVTITCRASEDIYNRLTWYQQKPGKAPKLLLSGATSLETGVPSRFSGSGSGKDYTLTISSLQPEDFATYYCQQYWSNPYTFGGGTKVEIK",
    "Result": "300 nM"
  }
]
